Target: T1, HCV Core1-169 (hepatitis C virus (HCV-1), UniProt P26664 1-169)
T1 sequence: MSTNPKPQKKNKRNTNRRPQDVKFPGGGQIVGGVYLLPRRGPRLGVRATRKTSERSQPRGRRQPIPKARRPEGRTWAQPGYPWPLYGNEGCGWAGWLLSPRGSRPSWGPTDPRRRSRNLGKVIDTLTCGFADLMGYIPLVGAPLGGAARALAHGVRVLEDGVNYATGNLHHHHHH
Test: SPR sandwich, capture mAb C11-3
I'd be grateful if you could share measured expected percent binding for these entries.
The answer is to be given in %; state only the numeric part.

Request: What value of expected percent binding has been recorded for this entry: HCV 208A-222 (antibody, V domains shown) VH: EVQLQQSGPELEKPGASVRISCKTSGYTFTEYAMHWVKQSHGKSLEWIGGINPNNGNAIYNQIFKDKATLTVDRSSSTAYMGLRSLTFGDSGVYFCVRRQLDYFDYWGQGASLTVSS VL: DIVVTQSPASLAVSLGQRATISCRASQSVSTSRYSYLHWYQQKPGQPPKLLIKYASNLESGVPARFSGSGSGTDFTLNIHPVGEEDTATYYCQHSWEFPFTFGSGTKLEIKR
Response: 15.6

Request: Fill in the blank: the reported expected percent binding of HCV 208B-589 (antibody, V domains shown) VH: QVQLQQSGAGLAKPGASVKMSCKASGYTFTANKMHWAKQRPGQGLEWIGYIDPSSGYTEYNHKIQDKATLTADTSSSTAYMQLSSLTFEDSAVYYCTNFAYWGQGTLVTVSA VL: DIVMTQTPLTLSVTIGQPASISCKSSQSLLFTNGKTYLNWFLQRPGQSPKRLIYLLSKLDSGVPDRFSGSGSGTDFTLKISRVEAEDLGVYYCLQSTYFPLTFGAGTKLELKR is ____.
Response: 9.4
